Values from ChEMBL document CHEMBL5120922

- tested.target: Phosphatidylinositol 4,5-bisphosphate 3-kinase catalytic subunit gamma isoform (Homo sapiens, UniProt P48736)
- Sequence (P48736 whole entry, looked up, canonical isoform): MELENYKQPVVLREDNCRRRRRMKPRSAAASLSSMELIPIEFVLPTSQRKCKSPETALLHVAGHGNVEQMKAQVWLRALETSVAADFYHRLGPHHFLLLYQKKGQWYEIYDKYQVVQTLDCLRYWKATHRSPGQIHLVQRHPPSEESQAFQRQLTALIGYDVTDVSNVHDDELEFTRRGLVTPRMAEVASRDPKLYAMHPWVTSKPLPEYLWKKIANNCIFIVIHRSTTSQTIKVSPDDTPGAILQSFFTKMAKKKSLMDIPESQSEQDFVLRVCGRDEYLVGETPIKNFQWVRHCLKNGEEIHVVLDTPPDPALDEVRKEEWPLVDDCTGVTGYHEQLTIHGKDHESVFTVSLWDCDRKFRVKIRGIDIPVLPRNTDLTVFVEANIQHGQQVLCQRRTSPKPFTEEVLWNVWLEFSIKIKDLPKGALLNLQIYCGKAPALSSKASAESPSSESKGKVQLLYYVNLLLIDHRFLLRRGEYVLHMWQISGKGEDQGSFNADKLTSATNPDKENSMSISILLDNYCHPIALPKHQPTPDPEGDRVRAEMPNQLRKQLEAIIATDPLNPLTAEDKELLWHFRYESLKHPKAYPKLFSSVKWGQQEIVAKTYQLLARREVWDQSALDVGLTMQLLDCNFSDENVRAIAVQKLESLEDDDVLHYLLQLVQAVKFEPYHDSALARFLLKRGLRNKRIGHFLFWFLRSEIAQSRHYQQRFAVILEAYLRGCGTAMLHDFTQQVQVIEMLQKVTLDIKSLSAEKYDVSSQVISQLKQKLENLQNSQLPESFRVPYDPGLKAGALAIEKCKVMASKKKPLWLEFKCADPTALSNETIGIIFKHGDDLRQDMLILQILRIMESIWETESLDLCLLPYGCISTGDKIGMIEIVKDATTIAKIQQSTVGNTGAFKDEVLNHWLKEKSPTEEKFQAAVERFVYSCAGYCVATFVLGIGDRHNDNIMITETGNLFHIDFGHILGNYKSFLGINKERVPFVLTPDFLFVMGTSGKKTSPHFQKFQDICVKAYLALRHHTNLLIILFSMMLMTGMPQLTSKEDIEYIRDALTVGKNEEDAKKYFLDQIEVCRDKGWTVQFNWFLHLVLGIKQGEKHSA
- test.description: Inhibition of N-terminal His6-tagged recombinant full length human PI3Kgamma expressed in baculovirus infected Sf21 insect cells at 0.1 uM by HTRF assay relative to control
// reported inhibition per item
measurement.kind: inhibition

{"columns": ["smi", "result"],
 "data": [
  ["C[C@H]1CC[C@@H](c2nc3cccc(-c4cnn(C5CC5)c4)c3c(=O)n2-c2cccnc2)N1c1nc(N)nc(N)c1C#N", "34%"],
  ["COc1ccc(-c2cccc3nc([C@@H]4CC[C@H](C)N4c4nc(N)nc(N)c4C#N)n(-c4ccccc4)c(=O)c23)cc1", "41%"],
  ["C[C@H]1CC[C@@H](c2nc3cccc(Cl)c3c(=O)n2-c2cc(F)cc(F)c2)N1c1nc(N)nc(N)c1C#N", "14%"],
  ["C[C@H]1CC[C@@H](c2nc3cccc(Cl)c3c(=O)n2-c2ccccc2)N1c1ccnc(N)n1", "99%"],
  ["CCn1cc(-c2cccc3nc([C@@H]4CC[C@H](C)N4c4nc(N)nc(N)c4C#N)n(-c4ccccc4)c(=O)c23)cn1", "-10%"],
  ["C[C@H]1CC[C@@H](c2nc3cccc(Cl)c3c(=O)n2-c2ccccc2)N1c1cc(Cl)nc(N)n1", "97%"],
  ["Cc1cccc(C#Cc2cccc3nc([C@@H]4CC[C@H](C)N4c4nc(N)nc(N)c4C#N)n(-c4ccccc4)c(=O)c23)c1", "83%"],
  ["C[C@H]1CC[C@@H](c2nc3cccc(Cl)c3c(=O)n2-c2ccccc2)N1c1nc(N)nc2[nH]cnc12", "30%"],
  ["C[C@H]1CC[C@@H](c2nc3c(F)cccc3c(=O)n2-c2cccnc2)N1c1nc(N)nc(N)c1C#N", "52%"],
  ["C[C@H]1CC[C@@H](c2nc3cccc(Cl)c3c(=O)n2-c2cc(F)cc(F)c2)N1c1nc(N)nc2[nH]cnc12", "51%"]
]}
